# key: entry, value: pIC50
Test system: A549
measurement_description: Cytotoxicity against human A549 cells after 72 hrs by MTS assay
Format: functional, cell-based
test_parameters: Homo sapiens, A549, 72 h; read-out: IC50
Here pIC50 is given on a logarithmic scale as minus log10 of the concentration in mol/L.

Recorded pIC50, per entry:
compound=CC[C@@H]1OC(=O)[C@@H](C)[C@H](O[C@@H]2C[C@](C)(OC)[C@@](O)(CN(C)C)[C@@H](C)O2)[C@H](C)[C@H](O[C@@H]2O[C@H](C)C[C@H](N(C)Cc3ccc(-c4cn(CCCCCCC(=O)NO)nn4)cc3)[C@H]2O)[C@@](C)(OC)C[C@H](C)C(=O)[C@@H](C)[C@@H](O)[C@@]1(C)O measured_target=A549 recorded_endpoint=pIC50 value=5.45
compound=CC[C@@H]1OC(=O)[C@H](C)[C@@H](O[C@@H]2C[C@](C)(OC)[C@H](O)[C@@H](C)O2)[C@@H](C)[C@@H](O[C@@H]2O[C@H](C)C[C@H](N(C)Cc3cccc(-c4cn(CCCCCCC(=O)NO)nn4)c3)[C@H]2O)[C@](C)(O)C[C@@H](C)CN(C)[C@H](C)[C@@H](O)[C@]1(C)O measured_target=A549 recorded_endpoint=pIC50 value=5.39
compound="CC[C@H]1OC(=O)[C@@H](C)[C@H](O[C@H]2C[C@@](C)(OC)[C@@H](O)[C@H](C)O2)[C@H](C)[C@H](O[C@H]2O[C@@H](C)C[C@@H](N(C)Cc3ccc(-c4cn(CCCCCCC(=O)NO)nn4)cc3)[C@@H]2O)[C@@](C)(O)C[C@H](C)CN(C)[C@@H](C)[C@H](O)[C@@]1(C)O (stereo in doubt)" measured_target=A549 recorded_endpoint=pIC50 value=5.63

Q: Recorded pIC50 for "CC[C@H]1OC(=O)[C@@H](C)[C@H](O[C@H]2C[C@@](C)(OC)[C@](O)(CN(C)C)[C@H](C)O2)[C@H](C)[C@H](O[C@H]2O[C@@H](C)C[C@@H](N(C)Cc3ccc(-c4cn(CCCCCCC(=O)NO)nn4)cc3)[C@@H]2O)[C@@](C)(O)C[C@H](C)CN(C)[C@@H](C)[C@H](O)[C@@]1(C)O" , please?
A: 5.17

Q: What measured pIC50 goes with "CC[C@H]1OC(=O)[C@H](C)C(=O)[C@H](C)[C@@H](O[C@@H]2O[C@H](C)C[C@H](N(C)Cc3ccc(-c4cn(CCCCCCC(=O)NO)nn4)cc3)[C@H]2O)[C@@](C)(OC)C[C@@H](C)C2=NCCN3C(=O)O[C@@]1(C)[C@H]3[C@H]2C" ?
A: 5.66

Q: So what's the measured pIC50 for this one? "CC[C@H]1OC(=O)[C@H](C)C(=O)[C@H](C)[C@@H](O[C@@H]2O[C@H](C)C[C@H](N(C)Cc3cccc(-c4cn(CCCCCCC(=O)NO)nn4)c3)[C@H]2O)[C@@](C)(OC)C[C@@H](C)C2=NCCN3C(=O)O[C@@]1(C)[C@H]3[C@H]2C"
A: 5.13

* * *

measured_target: Protein deacetylase HDAC6 (Homo sapiens, UniProt Q9UBN7)
Sequence (Q9UBN7 whole entry): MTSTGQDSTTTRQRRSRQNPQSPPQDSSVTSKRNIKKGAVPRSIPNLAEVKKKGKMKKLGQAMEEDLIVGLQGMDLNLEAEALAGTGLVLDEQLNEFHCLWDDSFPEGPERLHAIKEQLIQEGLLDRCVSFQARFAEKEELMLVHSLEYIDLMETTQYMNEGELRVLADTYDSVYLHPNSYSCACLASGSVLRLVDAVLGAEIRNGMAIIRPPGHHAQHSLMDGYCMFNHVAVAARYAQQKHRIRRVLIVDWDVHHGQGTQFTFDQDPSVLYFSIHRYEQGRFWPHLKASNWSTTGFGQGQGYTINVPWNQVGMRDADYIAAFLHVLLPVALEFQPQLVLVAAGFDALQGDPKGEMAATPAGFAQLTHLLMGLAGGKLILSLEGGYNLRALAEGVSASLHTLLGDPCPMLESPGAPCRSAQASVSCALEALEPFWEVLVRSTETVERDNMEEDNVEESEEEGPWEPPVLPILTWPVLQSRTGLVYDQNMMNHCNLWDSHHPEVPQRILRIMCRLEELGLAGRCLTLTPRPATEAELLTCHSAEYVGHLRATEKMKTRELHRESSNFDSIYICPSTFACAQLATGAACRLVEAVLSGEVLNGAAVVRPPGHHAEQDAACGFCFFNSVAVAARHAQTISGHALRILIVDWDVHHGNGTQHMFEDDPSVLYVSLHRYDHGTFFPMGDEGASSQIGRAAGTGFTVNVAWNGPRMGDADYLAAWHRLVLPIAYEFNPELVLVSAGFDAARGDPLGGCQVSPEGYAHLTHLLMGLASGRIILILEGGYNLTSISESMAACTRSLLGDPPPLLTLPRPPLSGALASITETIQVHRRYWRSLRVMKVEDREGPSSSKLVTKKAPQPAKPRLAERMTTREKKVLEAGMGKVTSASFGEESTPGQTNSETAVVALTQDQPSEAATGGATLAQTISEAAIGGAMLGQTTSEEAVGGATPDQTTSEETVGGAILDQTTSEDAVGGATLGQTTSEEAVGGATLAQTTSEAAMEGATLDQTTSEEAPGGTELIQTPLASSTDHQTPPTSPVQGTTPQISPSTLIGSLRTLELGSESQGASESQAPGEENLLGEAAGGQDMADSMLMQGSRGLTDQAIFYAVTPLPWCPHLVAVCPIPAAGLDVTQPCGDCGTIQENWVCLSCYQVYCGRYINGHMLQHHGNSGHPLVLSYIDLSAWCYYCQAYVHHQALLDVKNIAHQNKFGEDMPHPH
measurement_description: Inhibition of recombinant HDAC6 (unknown origin) expressed in Escherichia coli BL21(DE3) after 60 mins using trichostatin A by label-free mass spectrometry-based SAMDI assay
recorded_endpoint: IC50

Q: For the molecule shown here, "CC[C@H]1OC(=O)[C@H](C)[C@@H](O[C@@H]2C[C@](C)(OC)[C@H](O)[C@@H](C)O2)[C@H](C)[C@@H](O[C@@H]2O[C@H](C)C[C@H](N(C)C)[C@H]2O)[C@@](C)(O)C[C@@H](C)CN(Cc2ccc(-c3cn(CCCC(=O)NO)nn3)cc2)[C@@H](C)[C@@H](O)[C@]1(C)O" , give the reported IC50.
A: 0.62 µM

Q: Item "CC[C@@H]1OC(=O)[C@@H](C)[C@H](O[C@H]2C[C@@](C)(OC)[C@@H](O)[C@H](C)O2)[C@H](C)[C@H](O[C@@H]2O[C@H](C)C[C@H](N(C)Cc3ccc(-c4cn(CCCCC(=O)NO)nn4)cc3)[C@H]2O)[C@@](C)(OC)C[C@H](C)C(=O)[C@@H](C)[C@@H](O)[C@@]1(C)O" has what recorded IC50?
A: 0.12 µM

Q: Which IC50 is reported for this molecule? "CC[C@H]1OC(=O)[C@H](C)[C@@H](O[C@@H]2C[C@](C)(OC)[C@H](O)[C@@H](C)O2)[C@H](C)[C@@H](O[C@@H]2O[C@H](C)C[C@H](N(C)C)[C@H]2O)[C@@](C)(O)C[C@@H](C)CN(Cc2ccc(-c3cn(CCC(=O)NO)nn3)cc2)[C@@H](C)[C@@H](O)[C@]1(C)O"
A: 1.23 µM

Q: What does the record list as IC50 for "CC[C@@H]1OC(=O)[C@@H](C)[C@H](O[C@H]2C[C@@](C)(OC)[C@](O)(CN(C)Cc3ccc(-c4cn(CCC(=O)NO)nn4)cc3)[C@H](C)O2)[C@H](C)[C@H](O[C@@H]2O[C@H](C)C[C@H](N(C)C)[C@H]2O)[C@@](C)(OC)C[C@H](C)C(=O)[C@@H](C)[C@@H](O)[C@@]1(C)O" ?
A: 3.56 µM

Q: Data request, read-out IC50, for "CC[C@@H]1OC(=O)[C@@H](C)[C@H](O[C@H]2C[C@@](C)(OC)[C@](O)(CN(C)Cc3ccc(-c4cn(CCCCCCC(=O)NO)nn4)cc3)[C@H](C)O2)[C@H](C)[C@H](O[C@@H]2O[C@H](C)C[C@H](N(C)C)[C@H]2O)[C@@](C)(OC)C[C@H](C)C(=O)[C@@H](C)[C@@H](O)[C@@]1(C)O"
A: 0.00285 µM

* * *

# key: entry, value: pIC50
Test system: MCF7
measurement_description: Cytotoxicity against human MCF7 cells after 72 hrs by MTS assay
Type: functional, cell-based
test_parameters: Homo sapiens, MCF7, 72 h; read-out: IC50
Quick note: pIC50 means taking -log10 of the concentration in moles per liter.

molecule=CC[C@H]1OC(=O)[C@H](C)C(=O)[C@H](C)[C@@H](O[C@@H]2O[C@H](C)C[C@H](N(C)Cc3ccc(-c4cn(CCCCCCC(=O)NO)nn4)cc3)[C@H]2O)[C@@](C)(OC)C[C@@H](C)C2=NCCN3C(=O)O[C@@]1(C)[C@H]3[C@H]2C measured_target=MCF7 value=5.70
molecule=CC[C@H]1OC(=O)[C@H](C)C(=O)[C@H](C)[C@@H](O[C@@H]2O[C@H](C)C[C@H](N(C)Cc3cccc(-c4cn(CCCCCCC(=O)NO)nn4)c3)[C@H]2O)[C@@](C)(OC)C[C@@H](C)C2=NCCN3C(=O)O[C@@]1(C)[C@H]3[C@H]2C measured_target=MCF7 value=6.07
molecule=CC[C@@H]1OC(=O)[C@H](C)[C@@H](O[C@@H]2C[C@](C)(OC)[C@H](O)[C@@H](C)O2)[C@@H](C)[C@@H](O[C@@H]2O[C@H](C)C[C@H](N(C)Cc3cccc(-c4cn(CCCCCCC(=O)NO)nn4)c3)[C@H]2O)[C@](C)(O)C[C@@H](C)CN(C)[C@H](C)[C@@H](O)[C@]1(C)O measured_target=MCF7 value=5.63

Q: // pIC50 lookup, key: CC[C@@H]1OC(=O)[C@@H](C)[C@H](O[C@H]2C[C@@](C)(OC)[C@@H](O)[C@H](C)O2)[C@H](C)[C@H](O[C@@H]2O[C@H](C)C[C@H](N(C)Cc3ccc(-c4cn(CCCCCCC(=O)NO)nn4)cc3)[C@H]2O)[C@@](C)(OC)C[C@H](C)C(=O)[C@@H](C)[C@@H](O)[C@@]1(C)O (stereo in doubt)
A: 5.54

Q: So what does the record say about pIC50 for CC[C@H]1OC(=O)[C@@H](C)[C@H](O[C@H]2C[C@@](C)(OC)[C@@H](O)[C@H](C)O2)[C@H](C)[C@H](O[C@H]2O[C@@H](C)C[C@@H](N(C)Cc3ccc(-c4cn(CCCCCCC(=O)NO)nn4)cc3)[C@@H]2O)[C@@](C)(O)C[C@H](C)CN(C)[C@@H](C)[C@H](O)[C@@]1(C)O (stereo in doubt) ?
A: 5.39

Q: Consider the molecule "CC[C@@H]1OC(=O)[C@@H](C)[C@H](O[C@@H]2C[C@](C)(OC)[C@@](O)(CN(C)C)[C@@H](C)O2)[C@H](C)[C@H](O[C@@H]2O[C@H](C)C[C@H](N(C)Cc3ccc(-c4cn(CCCCCCC(=O)NO)nn4)cc3)[C@H]2O)[C@@](C)(OC)C[C@H](C)C(=O)[C@@H](C)[C@@H](O)[C@@]1(C)O" and give its measured pIC50.
A: 5.84

Q: What value of measured pIC50 is listed for "CC[C@@H]1OC(=O)[C@@H](C)[C@H](O[C@H]2C[C@@](C)(OC)[C@@H](O)[C@H](C)O2)[C@@H](C)[C@H](O[C@H]2O[C@@H](C)C[C@@H](N(C)C)[C@@H]2O)[C@](C)(O)C[C@H](C)CN(Cc2ccc(-c3cn(CCCCCCC(=O)NO)nn3)cc2)[C@H](C)[C@H](O)[C@@]1(C)O" ?
A: 5.20

Q: Returns the measured pIC50 for the input molecule. Input: "CC[C@@H]1OC(=O)[C@@H](C)[C@H](O[C@H]2C[C@@](C)(OC)[C@](O)(CN(C)Cc3ccc(-c4cn(CCCCCCC(=O)NO)nn4)cc3)[C@H](C)O2)[C@H](C)[C@H](O[C@@H]2O[C@H](C)C[C@H](N(C)C)[C@H]2O)[C@@](C)(OC)C[C@H](C)C(=O)[C@@H](C)[C@@H](O)[C@@]1(C)O"
A: 6.16
